- SYSTEM_UNDER_TEST: SARS-CoV-2 nsp13 (Severe acute respiratory syndrome coronavirus 2)
- PROCEDURE_SUMMARY: biochemical
- ASSAY_CONTEXT: unwinding BSA-TCEP IC50, 10 μg/mL BSA and 180 μM TCEP
QUANTITY_MEASURED: pIC50
Scale: negative log10 of molar concentration, which is what pIC50 denotes.

## Task May I ask what pIC50 has been recorded for O=c1c(O)c(-c2ccc(O)cc2)oc2cc(O)cc(O)c12 [kaempferol] ?
## Result 4.72

## Task Would you kindly share the measured pIC50 for COc1c(O)cc(O)c2c(=O)cc(-c3ccccc3)oc12 [wogonin] ?
## Result 4.13

###

- SYSTEM_UNDER_TEST: SARS-CoV-2 nsp13 (Severe acute respiratory syndrome coronavirus 2, UniProt P0DTD1)
- PROCEDURE_SUMMARY: biochemical
- Type: biochemical
- ASSAY_CONTEXT: ATPase BSA-TCEP-polyrA IC50, BSA, TCEP and poly(A) ssRNA
QUANTITY_MEASURED: IC50

## Task GET /values?readout=IC50&item= COc1cc(O)c2c(=O)c(-c3ccc(O)cc3)coc2c1 [prunetin]
## Result > 30 µM

## Task Any idea what IC50 was measured for O=c1c(O)c(-c2ccc(O)cc2)oc2cc(O)cc(O)c12 [kaempferol] ?
## Result > 30 µM

## Task Query: IC50; subject: COc1c(O)cc(O)c2c(=O)cc(-c3ccccc3)oc12 [wogonin]
## Result > 30 µM

###

For each entry below, report its ATPase, percentage of control at the highest tested compound concentration value.
- SYSTEM_UNDER_TEST: SARS-CoV-2 nsp13 (Severe acute respiratory syndrome coronavirus 2, UniProt P0DTD1)
- PROCEDURE_SUMMARY: biochemical
- Assay type: biochemical
- ASSAY_CONTEXT: without BSA/TCEP; highest tested concentration
Report as a plain number; the unit % is understood.

## Task Item: O=c1c(O)c(-c2cc(O)c(O)c(O)c2)oc2cc(O)cc(O)c12 Test system: SARS-CoV-2 nsp13 (Severe acute respiratory syndrome coronavirus 2, UniProt P0DTD1) Read-out: ATPase, percentage of control at the highest tested compound concentration Value: ?
## Result 87

## Task I'm curious: which ATPase, percentage of control at the highest tested compound concentration was measured for O=c1cc(-c2ccccc2)oc2cc(O)c(O)c(O)c12 tested on SARS-CoV-2 nsp13 (Severe acute respiratory syndrome coronavirus 2, UniProt P0DTD1)?
## Result 94

## Task For SARS-CoV-2 nsp13 (Severe acute respiratory syndrome coronavirus 2, UniProt P0DTD1), provide ATPase, percentage of control at the highest tested compound concentration of O=c1cc(-c2ccc(O)cc2)oc2cc(O[C@@H]3O[C@H](CO)[C@@H](O)[C@H](O)[C@H]3O)cc(O)c12 [apigenin-7-O-glucoside] please.
## Result 99

## Task Requested read-out ATPase, percentage of control at the highest tested compound concentration, target or system SARS-CoV-2 nsp13 (Severe acute respiratory syndrome coronavirus 2, UniProt P0DTD1), entry COc1ccc(-c2cc(=O)c3c(O)cc(O)cc3o2)cc1O
## Result 92

## Task // map COc1cc(O)c2c(=O)c(-c3ccc(O)cc3)coc2c1 to recorded ATPase, percentage of control at the highest tested compound concentration (system: SARS-CoV-2 nsp13 (Severe acute respiratory syndrome coronavirus 2, UniProt P0DTD1))
## Result 97

## Task SARS-CoV-2 nsp13 (Severe acute respiratory syndrome coronavirus 2, UniProt P0DTD1) / ATPase, percentage of control at the highest tested compound concentration / COc1c(O)cc(O)c2c(=O)cc(-c3ccccc3)oc12 : value?
## Result 95

## Task Param readout= ATPase, percentage of control at the highest tested compound concentration; system= SARS-CoV-2 nsp13 (Severe acute respiratory syndrome coronavirus 2, UniProt P0DTD1); entry= O=c1c(O)c(-c2ccc(O)cc2)oc2cc(O)cc(O)c12 ; returns value.
## Result 83

## Task Given the entry C[C@@H]1O[C@@H](OC[C@H]2O[C@@H](Oc3c(-c4ccc(O)c(O)c4)oc4cc(O)cc(O)c4c3=O)[C@H](O)[C@@H](O)[C@@H]2O)[C@H](O)[C@H](O)[C@H]1O , what ATPase, percentage of control at the highest tested compound concentration was observed with SARS-CoV-2 nsp13 (Severe acute respiratory syndrome coronavirus 2, UniProt P0DTD1)?
## Result 96

## Task Form entry - test system: SARS-CoV-2 nsp13 (Severe acute respiratory syndrome coronavirus 2, UniProt P0DTD1); read-out: ATPase, percentage of control at the highest tested compound concentration; compound: O=C(O)c1cc(O)c(O)c(O)c1
## Result 92

## Task Lab note: need ATPase, percentage of control at the highest tested compound concentration for O=C1c2c(O)cc(O)cc2O[C@H](c2cc(O)c(O)c(O)c2)[C@H]1O [dihydro-myricetin] on SARS-CoV-2 nsp13 (Severe acute respiratory syndrome coronavirus 2, UniProt P0DTD1), anyone have it?
## Result 100

## Task Missing value: ATPase, percentage of control at the highest tested compound concentration, SARS-CoV-2 nsp13 (Severe acute respiratory syndrome coronavirus 2, UniProt P0DTD1), entry Oc1ccc(/C=C/c2cc(O)cc(O)c2)cc1 . Fill in?
## Result 98

Hello, the source for this data is paper PMC9003574, in case you need it.
